Data provenance is patent US20250230172A1.

Molecular target: GCase (Homo sapiens, UniProt P04062)
Construct: endogenous in cells
Test: live cell PFB assay in HELA cells for activation of GCase
pEC50: −log10 of the molar value.
readout.name: pEC50

The following molecules have reported results that may help.
molecule	pEC50
FC(F)Cn1ncc2ncc(N3C[C@H]4CCN(c5ccnc(C(F)(F)F)c5)C[C@H]4C3)nc21 (racemic)	4.30 to 5.00
FC(F)Cn1ncc2ncc(N3CCN4C[C@H](Oc5cccnc5C(F)(F)F)C[C@H]4C3)nc21	4.00 to 4.30
FC(F)Cn1ncc2ncc(N3CC[C@H]4[C@@H]3CCN4c3cccc(C(F)(F)F)n3)nc21 (racemic)	4.30 to 5.00
FC(F)Cn1ncc2ncc(N3C[C@H]4CCN(c5ccncc5C(F)(F)F)C[C@H]4C3)nc21 (racemic)	> 5.00
FC(F)Cn1ncc2ncc(N[C@@H]3C[C@@H]4CN(c5cncc(C(F)(F)F)c5)C[C@@H]4C3)nc21	> 5.00
FC(F)Cn1ncc2ncc(N[C@H]3C[C@@H]4CN(c5nccc(C(F)(F)F)n5)C[C@@H]4C3)nc21	> 5.00

Query block: Record request: pEC50 value, item FC(F)Cn1ncc2ncc(N[C@H]3C[C@@H]4CN(c5cc(C(F)(F)F)ccn5)C[C@@H]4C3)nc21
Result block: > 5.00

----------
Target: GCase (Homo sapiens, UniProt P04062)
Construct: endogenous in cells
Test: live cell PFB assay in HELA cells for activation of GCase
Let's look at some compounds and their measured EC50.

compound	test.result
O=C(c1ccc2ccn(C3COC3)c2c1)N1CC[C@@H]2CN(c3cc(C(F)(F)F)ccn3)C[C@@H]2C1 (racemic)	10 to 50 µM

Please examine the following record next.
Query block: I would be grateful if you could share the reported EC50 for FC(F)Cn1ncc2ncc(N[C@H]3C[C@@H]4CN(c5cc(C(F)(F)F)cnn5)C[C@@H]4C3)nc21 .
Result block: 10 to 50 µM

----------
# key: entry, value: pEC50
Target: GCase (Homo sapiens)
Construct: endogenous in cells
Sequence (P04062 40-536): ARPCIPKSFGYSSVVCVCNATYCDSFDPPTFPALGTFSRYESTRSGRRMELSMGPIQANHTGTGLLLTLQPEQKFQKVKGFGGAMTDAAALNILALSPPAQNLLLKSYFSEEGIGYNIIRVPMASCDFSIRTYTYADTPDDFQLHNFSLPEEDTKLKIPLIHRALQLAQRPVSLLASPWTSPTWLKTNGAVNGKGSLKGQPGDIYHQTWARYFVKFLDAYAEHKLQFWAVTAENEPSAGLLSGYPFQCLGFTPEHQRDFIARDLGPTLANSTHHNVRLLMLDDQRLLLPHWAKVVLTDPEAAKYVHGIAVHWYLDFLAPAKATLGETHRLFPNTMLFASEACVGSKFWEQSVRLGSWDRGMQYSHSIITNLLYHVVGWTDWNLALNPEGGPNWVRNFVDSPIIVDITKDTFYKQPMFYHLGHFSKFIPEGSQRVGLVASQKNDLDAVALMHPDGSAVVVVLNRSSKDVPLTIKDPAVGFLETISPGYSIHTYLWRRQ
Assay: live cell PFB assay in HELA cells for activation of GCase
pEC50: −log10 of the molar value.

The examples below pair each entry with its known result.
compound	experimental.target	readout.name	test.result
FC(F)Cn1ncc2ncc(N3C[C@@H]4CN(c5cccc(C(F)(F)F)n5)C[C@H]4C3)nc21 (racemic) [Compound 46]	GCase (Homo sapiens)	pEC50	4.00 to 4.30
FC(F)Cn1ncc2ncc(N3C[C@H]4CCN(c5cccnc5C(F)(F)F)C[C@H]4C3)nc21 (racemic) [Compound 4]	GCase (Homo sapiens)	pEC50	> 5.00

Query block: Requested read-out: pEC50. Entry: FC(F)Cn1ncc2ncc(N[C@@H]3CC[C@@H]4CN(c5cccc(C(F)(F)F)n5)C[C@@H]4C3)nc21 (single isomer, unassigned) [Compound 71]
Result block: 4.30 to 5.00

Query block: So what does the record say about pEC50 for FC(F)Cn1ncc2ncc(N3CC[C@H]4CN(c5ccc(C(F)(F)F)cn5)C[C@@H]4C3)nc21 [Compound 69] ?
Result block: 4.30 to 5.00

Query block: May I ask what pEC50 has been recorded for FC(F)Cn1ncc2ncc(N[C@H]3C[C@@H]4CN(c5cccc(C(F)(F)F)n5)C[C@@H]4C3)nc21 [Compound 34] ?
Result block: 4.30 to 5.00

Query block: # get_value(readout='pEC50', item= COc1cnc(N2C[C@H]3C[C@H](Nc4cnc5cnn(CC(F)F)c5n4)C[C@H]3C2)cn1 [Compound 77] )
Result block: < 4.00

Query block: Look up pEC50: FC(F)(F)c1ccnc(N2C[C@H]3CCN(c4cncc(-c5nncs5)n4)C[C@H]3C2)c1 (racemic) [Compound 19]
Result block: < 4.00

Query block: Record request: pEC50 value, item FC(F)Cn1ncc2ncc(N[C@H]3C[C@@H]4CN(c5ccnc(C(F)(F)F)n5)C[C@@H]4C3)nc21 [Compound 87]
Result block: > 5.00

Query block: Which pEC50 reading was recorded for the compound FC(F)Cn1ncc2ncc(N3C[C@@H]4CN(c5cccnc5C(F)(F)F)C[C@@H]4C3)nc21 [Compound 49] ?
Result block: 4.30 to 5.00

Query block: Report pEC50 for FC(F)Cn1ncc2ncc(N[C@H]3C[C@@H]4CN(c5ccc(C(F)(F)F)cn5)C[C@@H]4C3)nc21 [Compound 40] please.
Result block: 4.30 to 5.00

Query block: Reported pEC50 for FC(F)Cn1ncc2ncc(N3CC[C@@H]4CN(c5cccc(C(F)(F)F)n5)C[C@@H]4C3)nc21 (racemic) [Compound 7] : what is it?
Result block: > 5.00

Query block: I have this compound here, FC(F)Cn1ncc2ncc(N[C@@H]3C[C@@H]4CN(c5cccnc5C(F)(F)F)C[C@@H]4C3)nc21 [Compound 36] , and I need its recorded pEC50.
Result block: > 5.00

Query block: If you can, please state the reported pEC50 value of FC(F)Cn1ncc2ncc(N3C[C@@H]4CCN(c5cc(C(F)(F)F)ccn5)[C@@H]4C3)nc21 (racemic) [Compound 60] .
Result block: 4.30 to 5.00
